# METHOD: Metabolic stability in rat liver microsomes assessed as half life measured up to 45 mins by LC-MS/MS analysis
# Assay type: ADME, Microsome
# CONDITION_SET: liver microsomes
TEST_READOUT: half-life (min)
Use min as the unit, but write only the number.

For reference, reported half-life for O=C(Nc1ccc(-c2nc(-c3ccc(Cl)cc3)no2)cc1)C1CC(=O)N(Cc2ccco2)C1 (stereo unspecified) stands at 10.6

###

# SYSTEM_NAME: Relaxin receptor 1 (Homo sapiens)
# Sequence (Q9HBX9 whole entry): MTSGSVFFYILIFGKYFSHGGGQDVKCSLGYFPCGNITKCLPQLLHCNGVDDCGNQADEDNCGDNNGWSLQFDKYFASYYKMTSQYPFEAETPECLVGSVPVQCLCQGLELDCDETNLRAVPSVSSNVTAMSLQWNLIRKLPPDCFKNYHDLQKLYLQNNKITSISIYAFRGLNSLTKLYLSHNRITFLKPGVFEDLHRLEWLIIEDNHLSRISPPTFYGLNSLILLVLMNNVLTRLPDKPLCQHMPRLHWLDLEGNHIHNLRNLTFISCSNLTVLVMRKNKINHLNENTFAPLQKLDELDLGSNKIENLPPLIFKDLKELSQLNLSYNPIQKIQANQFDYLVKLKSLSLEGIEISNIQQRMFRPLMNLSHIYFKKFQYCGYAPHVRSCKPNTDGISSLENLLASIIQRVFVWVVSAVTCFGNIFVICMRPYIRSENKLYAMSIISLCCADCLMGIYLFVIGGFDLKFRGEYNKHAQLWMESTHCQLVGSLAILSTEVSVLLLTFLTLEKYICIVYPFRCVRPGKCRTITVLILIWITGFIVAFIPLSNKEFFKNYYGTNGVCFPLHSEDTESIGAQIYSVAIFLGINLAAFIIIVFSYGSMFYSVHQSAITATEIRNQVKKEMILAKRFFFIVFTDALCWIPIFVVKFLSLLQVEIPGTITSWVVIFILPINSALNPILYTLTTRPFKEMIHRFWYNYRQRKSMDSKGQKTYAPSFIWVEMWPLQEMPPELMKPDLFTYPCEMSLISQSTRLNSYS
# METHOD: Negative allosteric modulation of human RXFP1 receptor expressed in CHO-K1 cells assessed as cAMP accumulation incubated for 30 mins by TR-FRET assay
TEST_READOUT: IC50

Illustrative cases are given below, each with its answer.
CNCCC(=O)Nc1ccc(-c2nc(-c3ccc(Cl)cc3)no2)cc1    19.6 µM
CNCCN1CCC(C(=O)Nc2ccc(-c3nc(-c4ccc(Cl)cc4)no3)cc2)CC1    > 100 µM
O=C(Nc1ccc(-c2nc(-c3ccc(Cl)cc3)no2)cc1)[C@@H]1CC(=O)N(C[C@@H]2CCCNC2)C1    > 100 µM

Proceed to the following item.
For this compound ( CNCCN1CC(C(=O)Nc2ccc(-c3nc(-c4ccc(Cl)cc4)no3)cc2)CC1=O (centres undefined) ), measured IC50 is > 100 µM
